Data provenance: patent US20260250381A1

assay_system: T1, human TREM2 (human) (UniProt Q9NZC2)
T1 sequence (looked up): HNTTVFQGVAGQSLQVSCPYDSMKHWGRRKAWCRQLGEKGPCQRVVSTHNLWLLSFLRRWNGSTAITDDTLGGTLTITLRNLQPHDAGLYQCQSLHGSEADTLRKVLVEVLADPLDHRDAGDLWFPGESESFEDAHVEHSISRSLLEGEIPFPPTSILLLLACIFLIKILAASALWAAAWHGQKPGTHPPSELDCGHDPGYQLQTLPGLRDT
test_summary: 2nd screen, 10 nM Ab
measured_parameter: Binding Signal (fold over 6E7 parental antibody) (fold)

binder	meas_value
6E7 variant V77 (antibody, V domains shown) VH: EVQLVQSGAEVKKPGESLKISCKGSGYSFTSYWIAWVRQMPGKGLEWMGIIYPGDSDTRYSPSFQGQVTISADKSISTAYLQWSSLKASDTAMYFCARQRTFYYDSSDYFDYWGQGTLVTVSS VL: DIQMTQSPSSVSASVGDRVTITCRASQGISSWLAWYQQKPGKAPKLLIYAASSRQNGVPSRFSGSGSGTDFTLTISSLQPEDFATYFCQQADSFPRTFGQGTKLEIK	1.38
6E7 variant V13 (antibody, V domains shown) VH: EVQLVQSGAEVKKPGESLKISCKGSGYSFGSYWIAWVRQMPGKGLEWMGIIYPGDSDTRYSASFQGQVTISADKSISTAYLQWSSLKASDTAMYFCARGRTFYYDSSDYFDYWGQGTLVTVSS VL: DIQMTQSPSSVSASVGDRVTITCRASQGISSWLAWYQQKPGKAPKLLIYAASSLQGGVPSRFSGSGSGTDFTLTISSLQPEDFATYFCQQADSMPRTFGQGTKLEIK	1.35
6E7 variant V15 (antibody, V domains shown) VH: EVQLVQSGAEVKKPGESLKISCKGSGYSFASYWIAWVRQMPGKGLEWMGTIYPGDSDTRYSPSFQGQVTISADKSISTAYLQWSSLKASDTAMYFCARSRTFYYDSSDYFDYWGQGTLVTVSS VL: DIQMTQSPSSVSASVGDRVTITCRASQGISSWLAWYQQKPGKAPKLLIYAASWLQNGVPSRFSGSGSGTDFTLTISSLQPEDFATYFCQQADSYPRTFGQGTKLEIK	4.78
6E7 variant V16 (antibody, V domains shown) VH: EVQLVQSGAEVKKPGESLKISCKGSGYSMTSYWIAWVRQMPGKGLEWMGIIYPGDGDTRYSPSFQGQVTISADKSISTAYLQWSSLKASDTAMYFCARSRTFYYDSSDYFDYWGQGTLVTVSS VL: DIQMTQSPSSVSASVGDRVTITCRASQGISSWLAWYQQKPGKAPKLLIYAASNLQNGVPSRFSGSGSGTDFTLTISSLQPEDFATYFCQQADSFPRTFGQGTKLEIK	4.04
6E7 variant V1 (antibody, V domains shown) VH: EVQLVQSGAEVKKPGESLKISCKGSGYSFTSSWIAWVRQMPGKGLEWMGIIYPGDSDTRYSPSFQGQVTISADKSISTAYLQWSSLKASDTAMYFCARSRTFYYDSSDYFDYWGQGTLVTVSS VL: DIQMTQSPSSVSASVGDRVTITCRASQGISSWLAWYQQKPGKAPKLLIYAASSLTNGVPSRFSGSGSGTDFTLTISSLQPEDFATYFCQQADSYPRTFGQGTKLEIK	1.92
